biological target: Insulin-degrading enzyme (Homo sapiens, UniProt P14735, C110L/C171S/C178A/C257V/C414L/C573N/C590S/C789S/C812A/C819A/C904S/C966N/C974A); assay: biochemical
Sequence (P14735 whole entry C110L/C171S/C178A/C257V/C414L/C573N/C590S/C789S/C812A/C819A/C904S/C966N/C974A): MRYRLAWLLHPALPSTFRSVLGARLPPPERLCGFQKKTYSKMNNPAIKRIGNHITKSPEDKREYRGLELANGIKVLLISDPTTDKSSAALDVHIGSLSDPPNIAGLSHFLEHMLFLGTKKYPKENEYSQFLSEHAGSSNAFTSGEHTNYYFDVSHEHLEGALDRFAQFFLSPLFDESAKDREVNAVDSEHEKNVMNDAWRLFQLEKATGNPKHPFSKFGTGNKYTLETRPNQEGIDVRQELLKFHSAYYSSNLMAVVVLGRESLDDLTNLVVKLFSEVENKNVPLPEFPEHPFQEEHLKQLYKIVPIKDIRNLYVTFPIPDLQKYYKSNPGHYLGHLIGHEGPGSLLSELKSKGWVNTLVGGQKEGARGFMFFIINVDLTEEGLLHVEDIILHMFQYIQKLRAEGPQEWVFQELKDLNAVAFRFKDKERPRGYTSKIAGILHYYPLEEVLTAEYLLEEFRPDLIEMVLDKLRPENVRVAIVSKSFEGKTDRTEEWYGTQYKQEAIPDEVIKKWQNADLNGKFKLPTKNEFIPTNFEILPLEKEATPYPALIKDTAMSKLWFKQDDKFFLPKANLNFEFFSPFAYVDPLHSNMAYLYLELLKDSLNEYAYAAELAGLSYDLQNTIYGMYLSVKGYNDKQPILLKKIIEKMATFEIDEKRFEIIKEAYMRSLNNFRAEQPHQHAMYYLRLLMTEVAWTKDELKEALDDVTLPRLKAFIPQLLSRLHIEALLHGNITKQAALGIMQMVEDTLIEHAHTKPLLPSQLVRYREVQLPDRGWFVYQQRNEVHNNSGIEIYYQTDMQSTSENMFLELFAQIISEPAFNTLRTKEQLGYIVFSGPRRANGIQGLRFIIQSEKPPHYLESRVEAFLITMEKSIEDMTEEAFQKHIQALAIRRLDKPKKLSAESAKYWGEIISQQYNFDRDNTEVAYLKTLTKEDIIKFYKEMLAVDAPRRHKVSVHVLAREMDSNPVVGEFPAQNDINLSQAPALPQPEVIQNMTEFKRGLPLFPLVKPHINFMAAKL
ENDPOINT_NAME: IC50 (nM)

1. O=C(C[C@@H](Cc1ccc2ccccc2c1)n1cc(CNC(=O)c2ccc(F)cc2)nn1)NO: 330

---

Examples of molecules with documented inhibition follow.
target: Insulin-degrading enzyme (Homo sapiens); assay: Inhibition of human recombinant IDE expressed in Escherichia coli BL21 (DE3) cells using ATTO 655- Cys-Lys-Leu-Val-Phe-Phe-Ala-Glu-Asp-Trp as substrate at 100 uM preincubated for 10 mins followed by substrate addition and measured after 30 mins by spectrophotometric analysis relative to control
ENDPOINT_NAME: inhibition (%)

1) COCCCOc1ccnc(C[S+]([O-])c2nc3ccccc3[nH]2)c1C (stereo not given): 98
2) COc1ccnc(C[S+]([O-])c2nc3cc(OC(F)F)ccc3[nH]2)c1OC (stereo not given): 0
3) Cc1c(OCC(F)(F)F)ccnc1C[S+]([O-])c1nc2ccccc2[nH]1 (stereo not given): 38
4) COc1ccc2[nH]c([S+]([O-])Cc3ncc(C)c(OC)c3C)nc2c1 (stereo not given): 41
5) COc1ccc2[nH]c([S+]([O-])Cc3ncc(C)c(OC)c3C)nc2n1 (stereo not given): 35

---

# maps each entry to its pIC50
target: Insulin-degrading enzyme (Homo sapiens, UniProt P14735); assay: Inhibition of human recombinant IDE expressed in Escherichia coli BL21 (DE3) cells using ATTO 655- Cys-Lys-Leu-Val-Phe-Phe-Ala-Glu-Asp-Trp as substrate preincubated for 10 mins followed by substrate addition and measured after 30 mins by spectrophotometric analysis
Sequence (P14735 whole entry): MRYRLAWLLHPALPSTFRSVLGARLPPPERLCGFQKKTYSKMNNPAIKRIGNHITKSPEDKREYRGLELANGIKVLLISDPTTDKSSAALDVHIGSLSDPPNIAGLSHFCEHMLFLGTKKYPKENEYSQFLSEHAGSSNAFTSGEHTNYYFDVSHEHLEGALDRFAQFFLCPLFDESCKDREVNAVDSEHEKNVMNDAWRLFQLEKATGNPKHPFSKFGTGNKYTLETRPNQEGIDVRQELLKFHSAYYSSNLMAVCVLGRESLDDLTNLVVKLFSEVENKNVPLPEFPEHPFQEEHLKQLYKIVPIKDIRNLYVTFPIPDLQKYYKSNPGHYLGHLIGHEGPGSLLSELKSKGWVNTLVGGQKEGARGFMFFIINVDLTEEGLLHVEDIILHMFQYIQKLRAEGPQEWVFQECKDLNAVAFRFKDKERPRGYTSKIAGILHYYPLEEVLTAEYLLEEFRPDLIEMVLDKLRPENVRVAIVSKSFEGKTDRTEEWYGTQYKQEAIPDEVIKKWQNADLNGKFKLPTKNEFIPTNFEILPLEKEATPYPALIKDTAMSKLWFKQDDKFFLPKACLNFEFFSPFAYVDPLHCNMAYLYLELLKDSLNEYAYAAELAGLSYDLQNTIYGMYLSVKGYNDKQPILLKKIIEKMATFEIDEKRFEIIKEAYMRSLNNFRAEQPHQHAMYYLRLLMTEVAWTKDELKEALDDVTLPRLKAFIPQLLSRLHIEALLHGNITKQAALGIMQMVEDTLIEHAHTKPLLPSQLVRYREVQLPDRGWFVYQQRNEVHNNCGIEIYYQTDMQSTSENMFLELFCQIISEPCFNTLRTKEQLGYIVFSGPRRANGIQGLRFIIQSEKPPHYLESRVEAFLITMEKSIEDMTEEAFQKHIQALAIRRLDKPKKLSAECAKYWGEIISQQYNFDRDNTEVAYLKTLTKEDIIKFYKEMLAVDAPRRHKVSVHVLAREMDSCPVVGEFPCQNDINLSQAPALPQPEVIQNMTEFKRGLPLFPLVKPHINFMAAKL
pIC50: −log10 of the molar value.
ENDPOINT_NAME: pIC50

1. O=c1c(O)c(-c2cc(O)c(O)c(O)c2)oc2cc(O)cc(O)c12: 4.00
2. COCCCOc1ccnc(C[S+]([O-])c2nc3ccccc3[nH]2)c1C (configuration not stated): 4.96
